# Lookup of reported Glycerol yield keyed by entry
# System: S. cerevisiae JAY 270
# protocol_description: Serum-bottle cultivation in YPD: biomass, glycerol, ethanol yields
# Type: cell-based, Saccharomyces cerevisiae
# conditions_used: 0.05%, YPD, serum bottles
# number then unit; no other words

compound	Glycerol yield
OCCc1ccccc1	0.031 ± 0.001 g/g
OCCc1ccc(O)cc1	0.031 ± 0.001 g/g
OCCc1c[nH]c2ccccc12	0.027 ± 0.001 g/g

stdin: Give its Glycerol yield value. Item: OB(O)O [Boric acid, reference compound]
stdout: 0.024 ± 0.001 g/g
